B1: Subtilisin-chymotrypsin inhibitor-2A, P01053 (parent)
chain: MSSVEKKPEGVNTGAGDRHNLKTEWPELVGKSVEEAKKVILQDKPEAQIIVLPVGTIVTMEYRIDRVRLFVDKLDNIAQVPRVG

Variants of: B1
Settings: Hordeum vulgare; pH 6.25; 25 °C; GdnHCl; Fluorescence; MES 50 mM; reversible: yes; structure 2CI2; whole UniProt chain shown
quantityKind: unfolding free energy (kcal/mol)
Output spec: scalar in kcal/mol, unitless text.

Need unfolding free energy of V58A , thanks. 6.93

E46A , same question. 6.82

E35Q , same question. 6.92

P53A , same question. 7.02

Value source: FireProtDB (doi:10.1006/jmbi.1995.0616)
